Parameter: MIC90. Scope: all listed entries.
- Test system: A. baumannii ATCC 19606 resistant mutant colonies (mutant 1-5)
- protocol.details: microbe, parasite or virus in culture
- Format: cell-based
- assay.conditions: Acinetobacter baumannii, ATCC19606, read-out: MIC 90 in (μg/mL), resistant mutant colony 5
Note: unit µg/mL is implicit; provide only the numeric part.

Take a look at these entries with their results.
[[record]]
compound = "CN(C)[C@@H]1C(O)=C(C(N)=O)C(=O)[C@@]2(O)C(O)=C3C(=O)c4c(O)cccc4[C@@](C)(O)[C@H]3C[C@@H]12 [Tetracycline]"
result = 0.6

[[record]]
compound = "Cn1c(=O)ccc2ccc(F)c(CCNC[C@H]3CN(c4cnc5c(n4)NC(=O)CO5)C(=O)O3)c21 [BWC0977]"
result = 0.3

[[record]]
compound = "CC[C@H]1OC(=O)[C@@](C)(F)C(=O)[C@H](C)[C@@H](O[C@@H]2O[C@H](C)C[C@H](N(C)C)[C@H]2O)[C@](C)(OC)C[C@@H](C)C(=O)[C@H](C)[C@H]2N(CCCCn3cc(-c4cccc(N)c4)nn3)C(=O)O[C@]12C [Solithromycin]"
result = 2.5


Turning now to a further record.
Give its MIC90 value. Item: C[C@@H](O)[C@H]1C(=O)N2C(C(=O)O)=C(S[C@@H]3CN[C@H](C(=O)N(C)C)C3)[C@H](C)[C@H]12 [Meropenem]
0.6
